test system: DIPGX29 (H3.3 K27M diffuse intrinsic pontine glioma line); experiment: growth inhibition (% activity, log2 RLU normalised to DMSO / staurosporine); higher = more growth inhibition; settings: 33 µM
Parameter growth inhibition: see the listing below.
Reply numerically in %, unit not repeated.

[[record]]
entry_smiles = "NC[C@@H]1O[C@H](O[C@H]2[C@@H](O)[C@H](O[C@@H]3[C@@H](O)[C@H](N)C[C@H](N)[C@H]3O[C@H]3O[C@H](CO)[C@@H](O)[C@H](O)[C@H]3N)O[C@@H]2CO)[C@H](N)[C@@H](O)[C@@H]1O"
study_system = "DIPGX29"
observed = 0.301

[[record]]
entry_smiles = "Nc1ccn([C@H]2CC[C@@H](CO)O2)c(=O)n1"
study_system = "DIPGX29"
observed = 1.28


Query: Param item = CN[C@@H]1[C@H](O)[C@H](NC)[C@H]2O[C@@]3(O)C(=O)C[C@@H](C)O[C@H]3O[C@@H]2[C@H]1O ; retrieve measured growth inhibition.
Result: 1.24

Query: Param item = Cc1ccnc(NS(=O)(=O)c2ccc(N)cc2)n1 ; retrieve measured growth inhibition.
Result: 0.307
